- target or test system: Tumor necrosis factor (Homo sapiens, UniProt P01375)
- Sequence (P01375 whole entry): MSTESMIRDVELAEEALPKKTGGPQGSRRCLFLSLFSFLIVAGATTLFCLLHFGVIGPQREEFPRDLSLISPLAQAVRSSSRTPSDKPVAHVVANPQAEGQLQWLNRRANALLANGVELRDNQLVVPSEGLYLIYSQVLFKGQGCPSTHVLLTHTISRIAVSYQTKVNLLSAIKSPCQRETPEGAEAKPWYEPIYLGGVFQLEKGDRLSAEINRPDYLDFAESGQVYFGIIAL
- procedure details: analog potency on TNFa NF-kB signaling – cell-based, revised, SAR follow-up (AID 2337)
- Assay type: functional
Calls of active or inactive are those of the source.
Entry note: the call must match one of Y (active), N (inactive)

Problem: Could you kindly confirm the outcome this assay logged for CC1Cc2cc(S(=O)(=O)N3CCN(c4ccccc4)CC3)ccc2N1C(=O)C1CC1 (stereo unspecified) ?
Solution: Y

Problem: Could you kindly confirm the outcome this assay logged for N#CC(c1ccccc1)c1ccc2c(C(F)(F)F)cc(C(F)(F)F)nc2n1 (stereo unspecified) ?
Solution: Y

Problem: Could you kindly confirm the outcome this assay logged for Cc1cc(C(=O)NC2CCCc3c2cnn3-c2ccccc2F)n(C)n1 (stereo unspecified) ?
Solution: N

Problem: Could you kindly confirm the outcome this assay logged for "O=C(Nc1ccc(Cl)cc1)c1ccc(CCN2CCc3ccccc3C2)cc1" ?
Solution: N

Problem: Could you kindly confirm the outcome this assay logged for Cc1cc(C(=O)COC(=O)c2ccccc2Br)c(C)n1CC1CCCO1 (stereo unspecified) ?
Solution: Y

Problem: Could you kindly confirm the outcome this assay logged for COc1cc(C(=O)Nc2sc3c(c2C(=O)O)CCC(C)C3)cc(OC)c1OC (stereo unspecified) ?
Solution: Y

---

Consider the following compounds; for each one, report its AC50.
- procedure details: toxicity toward HepG2 liver cells – cell-based, plate reader, cherry-pick, antagonist series, cytotoxicity control, dose response (AID 743416)
- Format: functional
Calls of active or inactive are those of the source.

Problem: Request the reported AC50 associated with "Cc1oc(-c2ccc3c(c2)OCCO3)cc1C(=O)O"
Solution: > 52 µM (inactive)

Problem: Request the reported AC50 associated with "COC(=O)c1ccc(Nc2cc(C)nc3ccc(C)cc23)cc1"
Solution: 13.2 µM (active)

Problem: Request the reported AC50 associated with "COc1ccc(C(=O)CN2C(=O)c3ccccc3S2(=O)=O)cc1"
Solution: > 52 µM (inactive)

Problem: Request the reported AC50 associated with "CC(C)C(=O)N1CCN(c2ccc(NC(=O)c3ccc4c(c3)OCCO4)cc2Cl)CC1"
Solution: 17.7 µM (active)

Problem: Request the reported AC50 associated with "CC(C)(C)c1ccc(Cn2c(=O)cnc3ccccc32)cc1"
Solution: 29.4 µM (active)

---

- target or test system: Polyadenylate-binding protein 1 (Homo sapiens, UniProt P11940)
- Sequence (P11940 whole entry, the tested form may be a part): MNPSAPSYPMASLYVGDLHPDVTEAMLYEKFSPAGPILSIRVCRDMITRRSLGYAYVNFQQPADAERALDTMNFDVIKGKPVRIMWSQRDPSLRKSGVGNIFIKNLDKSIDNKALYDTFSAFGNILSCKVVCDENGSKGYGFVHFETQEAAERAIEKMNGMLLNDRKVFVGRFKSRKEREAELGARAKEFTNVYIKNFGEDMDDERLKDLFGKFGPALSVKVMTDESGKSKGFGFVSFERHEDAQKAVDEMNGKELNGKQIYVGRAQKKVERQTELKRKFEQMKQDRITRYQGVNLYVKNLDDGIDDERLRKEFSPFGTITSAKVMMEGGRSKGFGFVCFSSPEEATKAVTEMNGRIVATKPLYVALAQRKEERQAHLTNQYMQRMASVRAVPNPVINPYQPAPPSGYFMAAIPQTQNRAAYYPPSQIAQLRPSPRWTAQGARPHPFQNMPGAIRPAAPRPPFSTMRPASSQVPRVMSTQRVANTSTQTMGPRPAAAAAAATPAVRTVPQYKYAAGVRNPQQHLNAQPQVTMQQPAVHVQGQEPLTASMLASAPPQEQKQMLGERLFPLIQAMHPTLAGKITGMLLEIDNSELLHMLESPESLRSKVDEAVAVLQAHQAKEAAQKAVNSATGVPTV
- procedure details: MLLE domain peptide-binding blockers, IC50 – biochemical, fluorescence polarization, FITC-PAM2 peptide, dose response (AID 602259)
- Format: functional
- run conditions: read-out: IC50_Mean
The source made the active and inactive calls.
Consider the following compounds; for each one, report its IC50.

Problem: Request the reported IC50 associated with "COC(=O)C1=C(NC(=O)c2ccc(C)c(C)c2)CCS1"
Solution: > 66 µM (inactive)

Problem: Request the reported IC50 associated with "O=C(CSc1ncnc2ccccc12)NCc1ccco1"
Solution: > 66 µM (inactive)

Problem: Request the reported IC50 associated with "COc1cc(NC(S)=Nc2ccc(OC(F)F)cc2)cc(OC)c1"
Solution: > 66 µM (inactive)

Problem: Request the reported IC50 associated with "N#Cc1c(O)nc(S)nc1-c1cccc(Cl)c1"
Solution: > 66 µM (inactive)

Problem: Request the reported IC50 associated with "Cc1c(N2C(=O)S/C(=C3\C(=O)Nc4ccccc43)C2=O)c(=O)n(-c2ccccc2)n1C"
Solution: > 66 µM (inactive)

Problem: Request the reported IC50 associated with "O=C1CCCC(=O)C1CS(=O)(=O)c1ccccc1"
Solution: > 66 µM (inactive)

Problem: Request the reported IC50 associated with "O=C(O)CSc1c2ccccc2cc2ccccc12"
Solution: > 66 µM (inactive)

Problem: Request the reported IC50 associated with "CN1C(=O)N(C)c2ccc(C=O)c3cccc1c23"
Solution: 58.8 µM (inactive)

Problem: Request the reported IC50 associated with "Cc1cc[n+](-c2[n-]c(=O)sc2C=NNC(=O)c2ccncc2)cc1"
Solution: 36 µM (inactive)

Problem: Request the reported IC50 associated with CCOC(=O)c1ccc(N2C(=O)CC(Sc3ncccn3)C2=O)cc1 (stereo not drawn)
Solution: > 66 µM (inactive)

Problem: Request the reported IC50 associated with "O=C(O)c1ccc2c(c1)[C@@H]1C=CC[C@@H]1[C@H](c1ccccn1)N2"
Solution: 53.3 µM (inactive)

Problem: Request the reported IC50 associated with "O=C(CSc1ccc(-c2ccncc2)nn1)c1ccccc1"
Solution: > 66 µM (inactive)

Problem: Request the reported IC50 associated with "NC(=O)c1ccsc1NC(=O)CSc1nc2ccccc2c(=O)n1CCCO"
Solution: > 66 µM (inactive)

Problem: Request the reported IC50 associated with "O=C(CCCN1C(=O)/C(=C/c2ccccc2Cl)SC1=S)NCCCN1CCOCC1"
Solution: > 66 µM (inactive)

Problem: Request the reported IC50 associated with "Cc1ccc(C(=O)/C=C/C(=O)O)cc1"
Solution: > 66 µM (inactive)

Problem: Request the reported IC50 associated with "COC(=O)c1sccc1N=C(S)Nc1cc(C)cc(C)c1"
Solution: > 66 µM (inactive)

Problem: Request the reported IC50 associated with "COc1ccc(C(=O)CN2CCN(S(=O)(=O)c3cccc([N+](=O)[O-])c3)CC2)cc1OC"
Solution: > 66 µM (inactive)

Problem: Request the reported IC50 associated with "CC=CCn1c(SCc2ccccc2)nc2c1c(=O)[nH]c(=O)n2C"
Solution: > 66 µM (inactive)

The reported numbers originate from ChEMBL document CHEMBL1201862.
